test system: human erythrocytes; assay type: cell-based
Ends that are not written are not given here.
attribute_measured: Side effects to humans as tested by hemolysis assay

Sample records with Side effects to humans as tested by hemolysis assay:
WWRLHAKWKLW [Chain109] : little side effects
KWIVWRWRFKR [Chain201] : little side effects
RRLIWRRFKWLR [Chain204] : little side effects
RKWRAMIRLHAKRLRK [Chain104] : little side effects
RLKWFLLFRKR [Chain308] : little side effects
RLKWFWLFRKR [Chain307] : little side effects
RKWRAMIRLHAKWLRK [Chain105] : little side effects

# evaluate next
So what does the record say about Side effects to humans as tested by hemolysis assay for KRKWRWLFKKL [Chain310] ? little side effects

###

tested on: Klebsiella pneumoniae clinical strains; format: cell-based; conditions: Klebsiella pneumoniae clinical strain 2; microdilution, Muller Hinton broth-cation adjusted, 0.02% BSA, 0.2% acetic acid
Square brackets hold non-standard residues; d marks the D form. Peptide text beside a SMILES is read from it.
I'd be grateful if you could share measured Minimum inhibitory concentration for these entries.
When you answer, write just the number.

So what does the record say about Minimum inhibitory concentration for CC[C@@H](C)[C@@H](NC(=O)[C@@H](Cc1c[nH]c2ccccc12)NC(=O)[C@H](N)CCCCN)C(=O)N[C@@H](C(=O)N[C@H](Cc1c[nH]c2ccccc12)C(=O)N[C@H](CCCNC(=N)N)C(=O)N[C@H](Cc1c[nH]c2ccccc12)C(=O)N[C@H](CCCNC(=N)N)C(=O)N[C@H](Cc1ccccc1)C(=O)N[C@H](CCCCN)C(=O)N[C@H](CCCNC(=N)N)C(=O)O)C(C)C [Chain201D] (H-[dK][dW][dI][dV][dW][dR][dW][dR][dF][dK][dR]-OH) ? 2

So what does the record say about Minimum inhibitory concentration for CC(C)C[C@@H](NC(=O)[C@H](N)CCCCN)C(=O)N[C@H](CCCCN)C(=O)N[C@H](Cc1c[nH]c2ccccc12)C(=O)N[C@H](Cc1ccccc1)C(=O)N[C@H](Cc1c[nH]c2ccccc12)C(=O)N[C@H](CC(C)C)C(=O)N[C@H](Cc1ccccc1)C(=O)N[C@H](CCCCN)C(=O)N[C@H](CCCCN)C(=O)N[C@H](CCCNC(=N)N)C(=O)O [Chain311D] (H-[dK][dL][dK][dW][dF][dW][dL][dF][dK][dK][dR]-OH) ? 8

###

test system: Candida albicans clinical strains; test: MIC, clinical yeast strains; assay type: cell-based; parameters: unit: μg/ml; settings: Candida albicans clinical yeast strain 5
Square brackets hold non-standard residues; d marks the D form. Peptide text beside a SMILES is read from it.
attribute_measured: Minimum inhibitory concentration

So what does the record say about Minimum inhibitory concentration for C[C@@H]1[C@H](O)[C@@H](C)/C=C/C=C/C=C/C=C/C=C/C=C/C=C/[C@H](O[C@@H]2O[C@H](C)[C@@H](O)[C@H](N)[C@@H]2O)C[C@@H]2O[C@](O)(C[C@@H](O)C[C@@H](O)[C@H](O)CC[C@@H](O)C[C@@H](O)CC(=O)O[C@H]1C)C[C@H](O)[C@H]2C(=O)O [Amphotericin B] ? 2

So what does the record say about Minimum inhibitory concentration for CC(C)C[C@@H](NC(=O)[C@@H](Cc1c[nH]c2ccccc12)NC(=O)[C@@H](Cc1ccccc1)NC(=O)[C@@H](Cc1c[nH]c2ccccc12)NC(=O)[C@@H](CCCCN)NC(=O)[C@@H](CCCNC(=N)N)NC(=O)[C@H](N)Cc1c[nH]c2ccccc12)C(=O)N[C@H](Cc1ccccc1)C(=O)N[C@H](CCCCN)C(=O)N[C@H](CCCCN)C(=O)N[C@H](CCCNC(=N)N)C(=O)O [Chain309D] (H-[dW][dR][dK][dW][dF][dW][dL][dF][dK][dK][dR]-OH) ? 32

So what does the record say about Minimum inhibitory concentration for CC[C@@H](C)[C@@H](N)C(=O)N[C@H](Cc1c[nH]c2ccccc12)C(=O)N[C@H](CCCCN)C(=O)N[C@H](CCCNC(=N)N)C(=O)N[C@H](Cc1ccccc1)C(=O)N[C@H](CCCNC(=N)N)C(=O)N[C@H](CC(C)C)C(=O)N[C@H](Cc1ccccc1)C(=O)N[C@H](CCCCN)C(=O)N[C@H](CCCCN)C(=O)N[C@H](Cc1c[nH]c2ccccc12)C(=O)O [Chain304D] (H-[dI][dW][dK][dR][dF][dR][dL][dF][dK][dK][dW]-OH) ? 32

So what does the record say about Minimum inhibitory concentration for CC(C)C[C@@H](NC(=O)[C@H](N)CCCNC(=N)N)C(=O)N[C@H](CCCCN)C(=O)N[C@H](Cc1c[nH]c2ccccc12)C(=O)N[C@H](Cc1ccccc1)C(=O)N[C@H](Cc1c[nH]c2ccccc12)C(=O)N[C@H](CC(C)C)C(=O)N[C@H](Cc1ccccc1)C(=O)N[C@H](CCCNC(=N)N)C(=O)N[C@H](CCCCN)C(=O)N[C@H](CCCNC(=N)N)C(=O)O [Chain307D] (H-[dR][dL][dK][dW][dF][dW][dL][dF][dR][dK][dR]-OH) ? 16

So what does the record say about Minimum inhibitory concentration for CC(C)C[C@@H](NC(=O)[C@@H](CCCCN)NC(=O)[C@@H](Cc1c[nH]c2ccccc12)NC(=O)[C@@H](CCCCN)NC(=O)[C@@H](C)NC(=O)[C@@H](Cc1c[nH]cn1)NC(=O)[C@@H](CC(C)C)NC(=O)[C@@H](CCCNC(=N)N)NC(=O)[C@@H](Cc1c[nH]c2ccccc12)NC(=O)[C@H](N)Cc1c[nH]c2ccccc12)C(=O)N[C@H](Cc1c[nH]c2ccccc12)C(=O)O [Chain109D] (H-[dW][dW][dR][dL][dH][dA][dK][dW][dK][dL][dW]-OH) ? 128

So what does the record say about Minimum inhibitory concentration for CC[C@@H](C)[C@@H](NC(=O)[C@@H](Cc1c[nH]c2ccccc12)NC(=O)[C@H](N)CCCCN)C(=O)N[C@@H](C(=O)N[C@H](Cc1c[nH]c2ccccc12)C(=O)N[C@H](CCCNC(=N)N)C(=O)N[C@H](Cc1c[nH]c2ccccc12)C(=O)N[C@H](CCCNC(=N)N)C(=O)N[C@H](Cc1ccccc1)C(=O)N[C@H](CCCCN)C(=O)N[C@H](CCCNC(=N)N)C(=O)O)C(C)C [Chain201D] (H-[dK][dW][dI][dV][dW][dR][dW][dR][dF][dK][dR]-OH) ? 8

###

tested on: Klebsiella pneumoniae clinical strains; type: cell-based; details: Klebsiella pneumoniae clinical strain 1; microdilution, Muller Hinton broth-cation adjusted, 0.02% BSA, 0.2% acetic acid
Square brackets hold non-standard residues; d marks the D form. Peptide text beside a SMILES is read from it.
attribute_measured: Minimum inhibitory concentration
When you answer, write just the number.

So what does the record say about Minimum inhibitory concentration for CC(C)C[C@@H](NC(=O)[C@H](N)CCCNC(=N)N)C(=O)N[C@H](CCCCN)C(=O)N[C@H](Cc1c[nH]c2ccccc12)C(=O)N[C@H](Cc1ccccc1)C(=O)N[C@H](Cc1c[nH]c2ccccc12)C(=O)N[C@H](CC(C)C)C(=O)N[C@H](Cc1ccccc1)C(=O)N[C@H](CCCNC(=N)N)C(=O)N[C@H](CCCCN)C(=O)N[C@H](CCCNC(=N)N)C(=O)O [Chain307D] (H-[dR][dL][dK][dW][dF][dW][dL][dF][dR][dK][dR]-OH) ? 8

So what does the record say about Minimum inhibitory concentration for CC(C)C[C@@H](NC(=O)[C@@H](CCCCN)NC(=O)[C@@H](CCCCN)NC(=O)[C@@H](Cc1ccccc1)NC(=O)[C@@H](CC(C)C)NC(=O)[C@@H](Cc1c[nH]c2ccccc12)NC(=O)[C@@H](CCCNC(=N)N)NC(=O)[C@@H](Cc1c[nH]c2ccccc12)NC(=O)[C@@H](CCCCN)NC(=O)[C@@H](CCCNC(=N)N)NC(=O)[C@H](N)CCCCN)C(=O)O [Chain310D] (H-[dK][dR][dK][dW][dR][dW][dL][dF][dK][dK][dL]-OH) ? 64

###

I'd be grateful if you could share measured Minimum inhibitory concentration for these entries.
system: Klebsiella pneumoniae clinical strains; type: cell-based; conditions: Klebsiella pneumoniae clinical strain 1; microdilution, Muller Hinton broth-cation adjusted, 0.02% BSA, 0.2% acetic acid
Square brackets hold non-standard residues; d marks the D form. Peptide text beside a SMILES is read from it.
When you answer, write just the number.

So what does the record say about Minimum inhibitory concentration for CC(C)C[C@@H](NC(=O)[C@H](N)CCCNC(=N)N)C(=O)N[C@H](CCCCN)C(=O)N[C@H](Cc1c[nH]c2ccccc12)C(=O)N[C@H](Cc1ccccc1)C(=O)N[C@H](CC(C)C)C(=O)N[C@H](CC(C)C)C(=O)N[C@H](Cc1ccccc1)C(=O)N[C@H](CCCNC(=N)N)C(=O)N[C@H](CCCCN)C(=O)N[C@H](CCCNC(=N)N)C(=O)O [Chain308D] (H-[dR][dL][dK][dW][dF][dL][dL][dF][dR][dK][dR]-OH) ? 4

So what does the record say about Minimum inhibitory concentration for CC(C)C[C@@H](NC(=O)[C@H](N)CCCNC(=N)N)C(=O)N[C@H](CCCCN)C(=O)N[C@H](CCCNC(=N)N)C(=O)N[C@H](Cc1c[nH]c2ccccc12)C(=O)N[C@H](CCCNC(=N)N)C(=O)N[C@H](CC(C)C)C(=O)N[C@H](Cc1ccccc1)C(=O)N[C@H](CCCNC(=N)N)C(=O)N[C@H](CCCCN)C(=O)N[C@H](CCCNC(=N)N)C(=O)O [Chain306D] (H-[dR][dL][dK][dR][dW][dR][dL][dF][dR][dK][dR]-OH) ? 128

So what does the record say about Minimum inhibitory concentration for CC(C)C[C@@H](NC(=O)[C@H](N)CCCCN)C(=O)N[C@H](CCCCN)C(=O)N[C@H](Cc1c[nH]c2ccccc12)C(=O)N[C@H](Cc1ccccc1)C(=O)N[C@H](Cc1c[nH]c2ccccc12)C(=O)N[C@H](CC(C)C)C(=O)N[C@H](Cc1ccccc1)C(=O)N[C@H](CCCCN)C(=O)N[C@H](CCCCN)C(=O)N[C@H](CCCNC(=N)N)C(=O)O [Chain311D] (H-[dK][dL][dK][dW][dF][dW][dL][dF][dK][dK][dR]-OH) ? 8

So what does the record say about Minimum inhibitory concentration for CC[C@@H](C)[C@@H](NC(=O)[C@@H](Cc1c[nH]c2ccccc12)NC(=O)[C@H](N)CCCCN)C(=O)N[C@@H](C(=O)N[C@H](Cc1c[nH]c2ccccc12)C(=O)N[C@H](CCCNC(=N)N)C(=O)N[C@H](Cc1c[nH]c2ccccc12)C(=O)N[C@H](CCCNC(=N)N)C(=O)N[C@H](Cc1ccccc1)C(=O)N[C@H](CCCCN)C(=O)N[C@H](CCCNC(=N)N)C(=O)O)C(C)C [Chain201D] (H-[dK][dW][dI][dV][dW][dR][dW][dR][dF][dK][dR]-OH) ? 2

So what does the record say about Minimum inhibitory concentration for CC[C@@H](C)[C@@H](NC(=O)[C@@H](CC(C)C)NC(=O)[C@@H](CCCNC(=N)N)NC(=O)[C@H](N)CCCNC(=N)N)C(=O)N[C@H](Cc1c[nH]c2ccccc12)C(=O)N[C@H](CCCNC(=N)N)C(=O)N[C@H](CCCNC(=N)N)C(=O)N[C@H](Cc1ccccc1)C(=O)N[C@H](CCCCN)C(=O)N[C@H](Cc1c[nH]c2ccccc12)C(=O)N[C@H](CC(C)C)C(=O)N[C@H](CCCNC(=N)N)C(=O)O [Chain204D] (H-[dR][dR][dL][dI][dW][dR][dR][dF][dK][dW][dL][dR]-OH) ? 8

So what does the record say about Minimum inhibitory concentration for CC(C)C[C@@H](NC(=O)[C@@H](Cc1c[nH]c2ccccc12)NC(=O)[C@@H](Cc1ccccc1)NC(=O)[C@@H](Cc1c[nH]c2ccccc12)NC(=O)[C@@H](CCCCN)NC(=O)[C@@H](CCCNC(=N)N)NC(=O)[C@H](N)Cc1c[nH]c2ccccc12)C(=O)N[C@H](Cc1ccccc1)C(=O)N[C@H](CCCCN)C(=O)N[C@H](CCCCN)C(=O)N[C@H](CCCNC(=N)N)C(=O)O [Chain309D] (H-[dW][dR][dK][dW][dF][dW][dL][dF][dK][dK][dR]-OH) ? 128
